test: probe aLefty1 binding on compound microarray – biochemical, small-molecule microarray, 635/667 nm fluorescence, primary screen (AID 1153); settings: higher = more signal;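 further: score merges spot fluorescence with signal-to-noise ratio from the scanned slide images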
quantity: composite z-score
Output spec: single numeric token, no unit.

Worked cases, answers included:
molecule	composite z-score
Cc1ccc(S[C@]2(C(=O)NCC(F)(F)F)CC(=O)N(C3Cc4ccccc4C3)[C@@H]2c2ccc(CO)cc2I)cc1	0.0013
CC(C)(C)OC(=O)CC[C@@]1(C(=O)NCC(O)CO)N=C(c2ccc(OCCCO)cc2)O[C@@H]1c1ccccc1 (some centres not stated)	0.0004
C=CCC(OC(C)=O)[C@@H]1[C@@H](N(Cc2ccc(-c3cccc(C(F)(F)F)c3)o2)C(=O)Cc2ccc(OC)cc2)c2cc(OCCCO)ccc2N1C(=O)Cc1ccc(OC)cc1 (some centres not stated)	-0.0547
Cc1ccc(S[C@]2(C(=O)NCC(C)C)CC(=O)N(Cc3ccccc3)[C@@H]2c2ccc(CO)cc2)cc1	0.171
C#C[C@H](O[Si](C#CCCCCCC)(C(C)C)C(C)C)c1ccccc1	-0.468
[N-]=[N+]=Nc1ccccc1[C@@H]1OC(c2ccc(OCCCO)cc2)=N[C@]1(CCS(=O)(=O)c1ccccc1)C(=O)N1CCCCC1	1.12
COc1ccc([Si](C)(C)[C@H]2[C@H](CC(=O)N3Cc4ccccc4C[C@H]3CO)O[C@@]3(C(=O)N(Cc4cccc(I)c4)c4ccccc43)[C@@H]2C)cc1	0.0233
C=CCC(OC(C)=O)[C@@H]1[C@@H](N(Cc2ccc(-c3cccc(C(F)(F)F)c3)o2)C(=O)c2ccc(C)cc2)c2cc(OCCCO)ccc2N1C(=O)c1ccc2ccccc2n1 (some centres not stated)	0.235
C[n+]1ccc2ccc(O)cc2c1	-0.109
CC(C)NC(=O)[C@@]1(c2ccc([N+](=O)[O-])cc2)CC(=O)N(C(C)C)[C@@H]1c1ccc(CO)cc1	-0.82

// query Request the reported composite z-score associated with O=C(NCC(O)CO)[C@@]1(Cc2ccccc2)COC(c2ccc(OCCCO)cc2)=N1 (some centres not stated)
// result -0.266

// query Name the recorded composite z-score for CC(C)C(CO)N1C(=O)[C@@H]2[C@H]3C(=O)OCC=C[C@H]3OC23C=CCN(c2ccc4ccccc4c2)C(=O)[C@@H]13 (some centres not stated) .
// result -0.147

// query Any idea what composite z-score was measured for COc1cc2c(cc1O)C(c1ccc(CN3CCCC3)cc1)N(Cc1sc3ccccc3c1Cl)CC2 (configuration not stated) ?
// result -0.113

// query # lookup: composite z-score of COc1ccc([Si](C)(C)[C@@H]2[C@@H](CCn3cc([C@H](O)c4ccccc4)nn3)O[C@]3(C(=O)N(C)c4ccccc43)[C@H]2C)cc1
// result -0.101

// query Reported composite z-score, molecule O=C1OCC=C[C@H]2OC34C=CCN(c5ccc(Cl)cc5)C(=O)[C@H]3N(CCCO)C(=O)[C@@H]4[C@@H]12 (some centres not stated) : ____
// result -0.128

// query What measured composite z-score goes with CCCNC(=O)[C@@]1(c2ccc([N+](=O)[O-])cc2)CC(=O)N(CC23CC4CC(CC(C4)C2)C3)[C@@H]1c1ccc(CO)cc1I ?
// result 0.181

// query composite z-score lookup needed for CCOC(=O)C[C@H]1[C@H](OC(=O)c2cc3ccccc3oc2=O)[C@@H](NC(=O)c2ccc3ccccc3c2)c2cc(OCCCO)ccc2N1C(=O)c1ccccc1 , thanks.
// result 0.201

// query Which composite z-score reading was recorded for the molecule O=C(CS)NCCCCCNC(=O)[C@H]1C[C@H]2C(=O)N[C@@H](Cc3ccccc3)C(=O)N2[C@H]1c1cccc(OCCO)c1 ?
// result 0.373

// query // returns reported composite z-score for input COc1ccc(C(=O)Nc2cccc(CN3C(=O)[C@@]4(O[C@@H](CCn5cc([C@H](O)c6ccccc6)nn5)[C@H]([Si](C)(C)c5ccc(OC)cc5)[C@H]4C)c4ccccc43)c2)cc1
// result 0.379

// query Looking for the measured composite z-score of O=C1C2C=CC(C(O)CCc3ccccc3)N(Nc3ccccc3)C2C(=O)N1c1ccccc1 (configuration not stated) , can you help?
// result 0.767

// query Please look up its composite z-score: C=CC[C@]1(C(=O)O)N=C(c2ccc(OCCCO)cc2)O[C@H]1c1ccccc1CN=[N+]=[N-]
// result 0.0425

// query Value lookup for composite z-score; key = C=CCOC(=O)[C@H]1[C@@H]2C(=O)O[C@@H](c3ccccc3)[C@@H](c3ccccc3)N2[C@@H](c2ccc(OCCOC(=O)[C@H]3C[C@H]4C(=O)N[C@@H](CCCC[N+](C)(C)C)C(=O)N4[C@H]3c3ccc(O)cc3)cc2)[C@]12C(=O)Nc1ccccc12
// result 0.206

* * *

assay: JC-1 mitochondrial potential readout, lung cancer cells – cell-based, A549, JC-1 fluorescence, basal, 24 h, 100 nL, profiling panel (AID 1138); details: higher = more signal;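 further: A549 lung adenocarcinoma cells under basal conditions with no added stimulus; test concentration not given here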
quantity: z-score
Enter a number only.

compound	measured
COc1ccc(C(=O)Nc2cccc(CN3C(=O)[C@@]4(O[C@@H](CCn5cc([C@H](O)c6ccccc6)nn5)[C@H]([Si](C)(C)c5ccc(OC)cc5)[C@H]4C)c4ccccc43)c2)cc1	-0.175
CC(C)OC(=O)C1=CCC(c2cccc(Cl)c2)O1 (configuration not stated)	-1.4
O=C1O[C@@H](c2ccccc2)[C@@H](c2ccccc2)N2[C@@H](c3ccc(O)cc3)[C@]3(C(=O)Nc4ccccc43)[C@@H](C(=O)N3CCCCCCC3)[C@H]12	0.48
C=CCCN(CC#C[C@H]1Oc2ccccc2S(=O)(=O)N2CCC[C@@H]12)S(=O)(=O)c1ccc(C)cc1	0.957

// query Query: z-score; subject: COCCOC(=O)N1C(=O)[C@@]2(c3cc(C#CCC(C(=O)OC)C(=O)OC)ccc31)[C@H](c1ccccc1OCCO)N1[C@H](c3ccccc3)[C@H](c3ccccc3)OC(=O)[C@H]1[C@@H]2C(=O)Nc1nc2ccccc2s1
// result -1.64

// query Can you look up the measured z-score of C=C[C@@H](C)[C@@H](OC(=O)Nc1ccc(OC)cc1)c1ccc(O)c2ccccc12 for me?
// result -1.38

// query What measured z-score goes with C=CCN1C(=O)[C@]2(Cc3ccccc31)N=C(c1ccc(OCCCO)cc1)O[C@@H]2c1ccccc1 ?
// result 0.188

* * *

assay: compound effects on hepatocellular carcinoma cell viability – HepG2, calcein-AM fluorescence, 48 h, basal, profiling panel (AID 1164); conditions: higher = more signal; further: test concentration not given here
Label true for high-side z-score (at or above 0.5) and false for low-side z-score (below it).

compound	answer_label
CCCNC(=O)[C@@]1(c2ccc([N+](=O)[O-])cc2)CC(=O)N(CC23CC4CC(CC(C4)C2)C3)[C@@H]1c1ccc(CO)cc1I	false

// query # bool: z-score of C=CCC(OC(C)=O)[C@@H]1[C@@H](N(Cc2ccc(-c3ccccc3)cc2)C(=O)c2ccc(C)cc2)c2cc(OCCCO)ccc2N1C(=O)Cc1ccc(OC)cc1 (some centres not stated) >= 0.5
// result true

// query Determine whether measured z-score meets or exceeds 0.5 for COc1ccc([Si](C)(C)[C@H]2[C@H](CC(=O)N3Cc4ccccc4C[C@H]3CO)O[C@@]3(C(=O)N(Cc4cccc(I)c4)c4ccccc43)[C@@H]2C)cc1
// result false

* * *

experiment: blockers of DNA damage checkpoint Chk1 activation – imaging, HeLa, hydroxyurea, phospho-Chk1 antibody, percent positive cells, primary screen (AID 1186); settings: hydroxyurea-induced phospho-Chk1 immunofluorescence imaging, higher = more signal
z-score by entry:
# respond with the number and nothing more

Record excerpt, results attached:
compound	measured
COc1ccc(C#Cc2ccc3c(c2)[C@]2(C(=O)N3)[C@H](c3ccc(OCCO)cc3)N3[C@H](c4ccccc4)[C@H](c4ccccc4)OC(=O)[C@H]3[C@@H]2C(=O)Nc2nc3ccccc3s2)cc1	0.141
[N-]=[N+]=NCc1ccccc1C[C@]1(C(=O)NCC(O)CO)COC(c2ccc(OCCCO)cc2)=N1 (some centres not stated)	-0.0874
C=CCNC(=O)[C@@H]1[C@H]2C(=O)O[C@H](c3ccccc3)[C@H](c3ccccc3)N2[C@H](c2ccccc2OCCO)[C@@]12C(=O)N(C(=O)OCCOC)c1ccc(C#CCC(C(=O)OC)C(=O)OC)cc12	0.071
CC(C)C(O)C1C=CC2C(=O)N(C)C(=O)C2N1N1CCCCC1 (configuration not stated)	0.604
COC(=O)[C@@]1(Cc2ccc(OC)cc2)[C@H]2c3cc(C(=O)N4CCCC4)n(C[C@H](O)CO)c3C[C@H]2CN1C(=O)c1ccccc1	0.0578

// query May I ask what z-score has been recorded for CC(C)(C)OC(=O)CC[C@@]1(C(=O)NCC(O)CO)N=C(c2ccc(OCCCO)cc2)O[C@@H]1c1ccccc1 (some centres not stated) ?
// result 0.184

// query For Cc1cc(C)c(C(O)C2C=CC3C(=O)NC(=O)C3N2Nc2ccccn2)c(C)c1 (configuration not stated) , what is its reported z-score?
// result 0.321
